System: Oryza sativa
Test: Inhibition of rice alpha-glucosidase using p-nitrophenyl glycoside as substrate at 1000 uM by spectrometric method relative to control
Decide using inhibition: a value greater than or equal to 10% is Met, a smaller one is Not met.

Use these answered entries as a reference point.
OC[C@@H]1[C@@H](O)[C@H](O)[C@H]2[C@@H](O)C(F)(F)CN21 ... Not met
OC[C@@H]1[C@@H](O)[C@H](O)[C@H]2[C@H](O)[C@H](F)CN21 ... Met
OC[C@@H]1[C@@H](O)[C@H](O)[C@H]2C[C@H](O)CN12 ... Met
OC[C@@H]1[C@@H](O)[C@H](O)[C@H]2CC(F)(F)CN12 ... Met
OC[C@@H]1[C@@H](O)[C@H](O)[C@H]2[C@@H](O)[C@H](F)CN21 ... Met

With those in mind, consider the next compound.
Does inhibition meet or surpass 10% for `OC[C@@H]1[C@@H](O)[C@H](O)[C@H]2C[C@@H](F)CN12` ?
Met

====

Test system: Prunus dulcis
Experiment: Inhibition of almond beta-glucosidase using p-nitrophenyl glycoside as substrate at 1000 uM by spectrometric method relative to control
Output Y for inhibition not less than 10%; output N otherwise.

As a guide, the following entries are already answered.
OC[C@@H]1[C@@H](O)[C@H](O)[C@H]2[C@@H](O)[C@@H](F)CN21 ... Y
OC[C@@H]1[C@@H](O)[C@H](O)[C@H]2CC(F)(F)CN12 ... Y
OC[C@@H]1[C@@H](O)[C@H](O)[C@H]2[C@@H](O)C(F)(F)CN21 ... N

Is inhibition for `OC[C@@H]1[C@@H](O)[C@H](O)[C@H]2C[C@H](O)CN12` at or above 10%?
Y

Does inhibition meet or surpass 10% for `OC[C@@H]1[C@@H](O)[C@H](O)[C@H]2C[C@@H](O)CN12` ?
Y

# check: inhibition of `OC[C@@H]1[C@@H](O)[C@H](O)[C@H]2[C@@H](O)[C@H](F)CN21` is greater than or equal to 10%
N

Quick check, inhibition >= 10%? `OC[C@@H]1[C@@H](O)[C@H](O)[C@H]2C[C@H](F)CN12`
Y

Form field: inhibition at least 10%? Entry: `OC[C@@H]1[C@@H](O)[C@H](O)[C@H]2[C@H](O)[C@@H](F)CN21`
Y

Is it the case that `OC[C@@H]1[C@@H](O)[C@H](O)[C@H]2C[C@@H](F)CN12` has inhibition reaching or exceeding 10%?
Y

====

Parameter inhibition: see the listing below.
Organism: Bos taurus
Experiment: Inhibition of bovine liver beta-galactosidase using p-nitrophenyl glycoside as substrate at 1000 uM by spectrometric method relative to control
Type: tissue-based
Kindly answer with a numeric value in %, unit omitted.

Solved entries (count: 6):
OC[C@@H]1[C@@H](O)[C@H](O)[C@H]2[C@@H](O)C(F)(F)CN21 ... 6.2
OC[C@@H]1[C@@H](O)[C@H](O)[C@H]2C[C@@H](F)CN12 ... 29.9
OC[C@@H]1[C@@H](O)[C@H](O)[C@H]2C[C@H](O)CN12 ... 25.4
OC[C@@H]1[C@@H](O)[C@H](O)[C@H]2[C@@H](O)[C@@H](F)CN21 ... 38
OC[C@@H]1[C@@H](O)[C@H](O)[C@H]2[C@@H](O)[C@H](F)CN21 ... 17.6
OC[C@@H]1[C@@H](O)[C@H](O)[C@H]2C[C@H](F)CN12 ... 25.8

// lookup inhibition for `OC[C@@H]1[C@@H](O)[C@H](O)[C@H]2[C@H](O)[C@@H](F)CN21`
36.7

Consider the compound `OC[C@@H]1[C@@H](O)[C@H](O)[C@H]2CC(F)(F)CN12` and give its measured inhibition.
22.4

What inhibition value was documented for this compound, `OC[C@@H]1[C@@H](O)[C@H](O)[C@H]2[C@H](O)[C@H](F)CN21` ?
47.6

Field request: inhibition | item: `OC[C@@H]1[C@@H](O)[C@H](O)[C@H]2C[C@@H](O)CN12`
5.9

Data credit: ChEMBL document CHEMBL5247629
